Reported melting point by item:

Could you tell me which melting point is on file for `O=S(=O)(Nc1cccc(I)c1)C(F)(F)F` ? 75 to 77 °C

Which melting point value belongs to `Cc1ccccc1C(=O)Nc1nc2ccccc2c(=O)n1C` ? 185 to 186 °C

Please give the measured melting point for this molecule: `CCN(CC)CCOc1ccc(Nc2ncc3c(n2)N(c2cccc(CCO)c2)C(=O)N(c2ccccc2Br)C3)cc1` 98 °C

Request the reported melting point associated with `CC1(C)Oc2cc(Br)c(Br)cc2O1` 93 to 94 °C

---
Field request: melting point | item: Cc1ccc2c(c1)C(O)(C1=CCN(C)CC1)CC2c1ccc(F)cc1 (stereo not given) 176 to 178 °C

Could you tell me which melting point is on file for `FC(F)(F)c1ccc(CN2CCNc3ncc(I)cc32)o1` ? 153 to 154 °C

I am curious: what melting point value has been reported for `COc1ccc(OC)c(NC(=O)NCC2(c3ccccc3)CCCCC2)c1` ? 164 to 166 °C

Given the entry `Cc1ccc(C(=O)Nc2cc3c(cc2N)C(C)(C)CCC3(C)C)cc1` , report its measured melting point. 180 °C

Endpoint output: melting point of CC1CN(c2ccccc2)C(=O)N(c2cccc(C(F)(F)F)c2)C1 (stereo not given) . Value? 121 to 123 °C

Can you share its melting point? I mean this molecule: CCC(OC)(c1cncc(OCc2ccc3ccccc3c2)c1)c1nccs1 (stereo not given) 93 to 95 °C

* * *

Measured melting point accompanies every entry in the list below.

Requested field: melting point. Item: CC(Cc1ccc(C2OC(N)=NC2=O)cc1)NCC(O)c1cccc(C(F)(F)F)c1 (stereo not given) 152 to 164 °C

More entries:
// lookup melting point for `O=C(NCc1ccccc1Cl)c1cccnc1Oc1ccc(F)cc1F` 122 to 124 °C

# lookup: melting point of CC1NC(=O)NN=C1c1ccc(O)cc1 (stereo not given) 256 to 259 °C

* * *

Measurement label: melting point

See these solved cases before continuing.
Consider the molecule shown here: `O=C(O)c1c(-c2cc(Cl)cc(Cl)c2)c2ccccc2n1Cc1cc2c(cc1Cl)OCO2` What is its recorded melting point? 221 to 222 °C

I have this molecule here, Cc1nc2c([nH]1)N(Cc1ccc(Cl)cc1)C1=NC(C)CN1C2=O (stereo not given) , and I need its recorded melting point. 290 to 291 °C

Which melting point value belongs to `Cc1nn(-c2c(Cl)cc(C(F)(F)F)cc2Cl)nc1C#N` ? 53 °C

Record request: melting point value, item O=C1CCC(N2Cc3c(OCc4ccc(CNC5CCCCC5)cc4)cccc3C2=O)C(=O)N1 (stereo not given) 175 to 177 °C

Kindly consider the entry below.
Could you share which melting point value was measured for `CS(=O)(=O)OCC1(c2ccc(Cl)cc2)CCC1` ? 66 to 70 °C

* * *

Reported melting point by item:

Known melting point results, listed for orientation:
Requested read-out: melting point. Entry: `O=c1oc(-c2ccccc2)cc(O)c1Sc1cccc(Cl)c1` 181 to 182 °C

Entry under review: CC1(C)CCC(C)(C)N1CC(O)COc1cc2ccccc2c(=O)c2ccsc12 (configuration not stated) . Reported melting point? 104 to 107 °C

// query melting point value for entry CN(Cc1cccc2c1CN(C1CCC(=O)NC1=O)C2=O)C(=O)Nc1ccc(Cl)c(Cl)c1 (configuration not stated) 275 to 277 °C

Fill in the blank: the reported melting point of CNC(=NCCS(=O)Cc1[nH]cnc1C)NC#N (configuration not stated) is ____. 185 to 186 °C

Quick check: melting point of `CCC(C)(C)c1cc(-c2ccc(C=C3SC(=O)NC3=O)cn2)cc2nc(C)oc12` ? 312 °C

Quick one: melting point of `COc1cc(OC)nc(NC(=O)N=NS(=O)(=O)C2N(C)C=CN2C)n1` ? 201 to 203 °C

Field request: melting point | item: `CCOC(=O)Nc1ccc(N2CCN([C@H](C)[C@](O)(Cn3cncn3)c3ccc(F)cc3F)CC2)cc1` 90 to 92 °C

Quick one: melting point of `O=S(=O)(Cl)c1ccc(-c2ccc(C(F)(F)F)cc2)s1` ? 73 to 75 °C

More entries:
Consider the compound NC(=O)c1ccc(CN2C(=O)C3(COc4cc5c(cc43)OCCO5)c3ccccc32)cc1 (configuration not stated) and give its measured melting point. 236 to 238 °C

Param item = `CCCc1c(COc2ccc(Cc3nnn(CCCCCCc4nnn[nH]4)n3)cc2)ccc(C(C)=O)c1O` ; retrieve measured melting point. 110 to 113 °C

Fill blank: measured melting point of the compound `C#CCOC(=O)C=CC(=O)OCC#C` is ____. 78 to 80 °C

Returns the measured melting point for the input compound. Input: `O=C(O)c1nc(SC2CCCCC2)ccc1SC1CCCCC1` 100 to 101 °C

* * *

Measurement label: melting point

The cases that follow already have their melting point on record.
melting point for `CC(=O)c1ccc(-c2ccc(F)cc2)c(F)c1` ? 80 to 82.5 °C

Any idea what melting point was measured for CC(C)(C)OC(=O)NC(CC1=CC(=O)NC1=O)C(=O)OC(C)(C)C (stereo not given) ? 104 to 105 °C

Please give the measured melting point for this compound: CS(=O)c1c(C=NO[Si](C)(C)C(C)(C)C)nn(-c2c(Cl)cc(C(F)(F)F)cc2Cl)c1N (stereo not given) 150 to 154 °C

New cases:
I have this compound here, CN(C)C(=O)OC1c2ccccc2C(=O)N1c1ccc2ccc(Cl)nc2n1 (stereo not given) , and I need its recorded melting point. 217 to 218 °C

What does the record list as melting point for `CCOC(=O)c1ncn2c1CN=C(c1ccccc1F)c1cc([N+](=O)[O-])ccc1-2` ? 228 to 231 °C

I would be grateful if you could share the reported melting point for `CNC1=NS(=O)(=O)N=C1NCCSCc1ccc(CN(C)C)s1` . 60.5 to 66 °C

Fill in the blank: the reported melting point of `NS(=O)(=O)c1ccccc1C1=CCCC1` is ____. 112 to 113 °C

Quick one: melting point for `CC(=O)NC[C@H]1CN(c2ccc(N3CCC(n4nnc(-c5ccccc5)n4)CC3)c(F)c2)C(=O)O1` ? 212 to 214 °C

Entry `CCCCN(CCCC)S(=O)(=O)c1cc(C(=O)CCl)ccc1Cl` : reported melting point = ? 71 °C

Endpoint output: melting point of NC1CC(c2c[nH]c3ccc(CC4COC(=O)N4)cc23)C1 (stereo not given) . Value? 95 to 100 °C

* * *

Measurement label: melting point

Which melting point is listed for Nc1cccc(COc2cccc3c2CN(C2CCC(=O)NC2=O)C3=O)c1 (stereo not given) ? 109 to 113 °C

What value of measured melting point is listed for `CN(C)CCOc1ccc(Cl)c(C(=O)O)c1Cl` ? 234 to 236 °C

Endpoint output: melting point of `Nc1cc2[nH]c(=O)oc2cc1N` . Value? > 360 °C

Dear colleague, I am looking for the recorded melting point of the following compound: `CCN(CC)Cc1nnc(-c2ncn3c2CN(C)C(=O)c2ccccc2-3)o1` 235 to 238 °C

Value lookup for melting point; key = `Cn1c(=O)oc(=O)c2ccc(F)cc21` 158 to 160 °C

Any idea what melting point was measured for `CCCCOC(=O)C(=C1SC=CS1)S(=O)(=O)C(C)C` ? 67 to 69 °C

Recorded melting point of COc1ccc(C[C@H]2NC(=O)O[C@H]2c2ccc(F)cc2)cc1 (racemic) , please. 125 to 126 °C

Any idea what its melting point is? The compound is `OC[C@H](O)CNc1ccc2cc(OCC3CC3)ccc2c1` 138 °C

Others:
Return reported melting point; argument: `Oc1ccc2c(c1)Oc1cc(O)ccc1C2(C(F)(F)F)C(F)(F)F` 209 to 210 °C

So what does the record say about melting point for `O=C(ON1CCC(c2nsc3ccccc23)CC1)c1ccccc1` ? 84 to 85 °C

Need melting point, item `Cc1cc(C)c2nc(NC3CCN(CCCS(N)(=O)=O)CC3)n(Cc3nc(C)ccc3O)c2c1` 180 °C

Look up melting point: `NS(=O)(=O)c1cc2cc(C=O)sc2o1` 165 to 167 °C

I'd like to know its melting point. The compound in question is `CC(C)(C)OC(=O)N[C@@H]1C[C@H](CO)[C@@H](O)C1` 126 to 128 °C

Name the recorded melting point for `Cn1ncc2c1-c1c(Sc3ccccn3)sc(C(N)=O)c1CC2` . 234 to 236 °C

# melting point lookup, item `CN(C)Cc1ccccc1Sc1ccc(F)cc1[N+](=O)[O-]` 57 to 59 °C

* * *

Consider the following compounds and their measured melting point readings.

Worked examples follow.
I would be grateful if you could share the reported melting point for `COC(=O)c1ccc2ccc(OC(=S)N(C)C)cc2c1` . 124 to 126 °C

Any idea what its melting point is? The compound is CCCCC(c1cccc(C(F)(F)F)c1)n1ccc2cc(-c3ccccc3-c3nn[nH]n3)ccc21 (stereo unspecified) 75 to 80 °C

For the compound `CCN1C(=O)C(=CC=C2C=C(c3ccc(OC)cc3)C=C3N2c2ccccc2C3(C)C)SC1=S` , what melting point is on record? 210 to 211 °C

Report melting point for CNC(=O)N(C)C1=NN(C(=O)C(C)(C)C)C(C)S1 (stereo unspecified) please. 168 to 169 °C

Can you look up the measured melting point of `Cn1ccc(=O)c(-c2cccc(C(F)(F)F)c2)c1` for me? 122 to 123 °C

Now for a further compound.
For `O=C1C=C(c2ccccc2O)CC1` , what is its reported melting point? 162 to 165 °C
